Just for reference, patent US20240400591A1 is where these values come from.

Each record here notes measured EC50.
# testedSystem: His-p53 Y220C (94-294) protein (Homo sapiens, UniProt P04637, Y220C)
# Construct: His-p53 Y220C (94-294) protein
# methodSummary: In vitro DNA binding assay (HTRF)
# conditionLabel: % activation normalized to 2 μM Ref-1a high control
endpointName: EC50 (nM)

- CN1CC[C@@H](Nc2cccc3c(CC(F)(F)F)c(C#CCNC(=O)c4ccn(C(C)(C)C)c4)sc23)[C@@H](F)C1 (racemic) [Example 130]: 117
- CN1CC[C@@H](Nc2cccc3c(CC(F)(F)F)c(C#CCNc4ccc(P(C)(C)=O)cc4OC(F)(F)F)sc23)[C@@H](F)C1 [Example 138]: 34
- COc1cc(S(C)(=O)=O)ccc1NCC#Cc1sc2c(NC3CCN(C)CC3)ccc(F)c2c1CC(F)(F)F [Example 51]: 479
- COc1cc(P(C)(C)=O)ccc1NCC#Cc1sc2c(N[C@@H]3CCN(C4CCS(=O)(=O)CC4)C[C@@H]3F)cccc2c1CC(F)(F)F (relative stereo) [Example 93]: 151
- CNC(=O)c1ccc(NCC#Cc2sc3c(N[C@@H]4CCN(C)C[C@@H]4F)cccc3c2CC(F)(F)F)c(OCCOC)c1 (racemic) [Example 81]: 87
- COc1cc(S(C)(=O)=O)ccc1NCC#Cc1sc2c(NC3CC4CC3CN4)cccc2c1CC(F)(F)F (stereo not drawn) [Example 28]: 284
- CNC(=O)c1ccc(NCC#Cc2cc3c(N[C@@H]4CCN(C)C[C@@H]4F)cccc3n2CC(F)(F)F)c(OC)c1 [Example 110]: 27
- CN1CC[C@H](Nc2cccc3c(CC(F)(F)F)c(C#CCNc4ccc(P(C)(C)=O)cc4C(F)F)sc23)[C@H](F)C1 [Example 225]: 36
- CN1CC[C@@H](Nc2cccc3c(CC(F)(F)F)c(C#CCNc4ccc(P(C)(C)=O)c5ncsc45)sc23)[C@@H](F)C1 [Example 220]: 41
- CN1CC[C@@H](Nc2cccc3c(CC(F)(F)F)c(C#CCNc4ccc(P(C)(C)=O)cc4F)sc23)[C@@H](F)C1 [Example 84]: 45
- COc1cc(P(C)(C)=O)ccc1NCC#Cc1sc2c(N[C@@H]3CCN(C)C[C@@H]3Cl)cccc2c1CC(F)(F)F [Example 158]: 30
- COc1cc(P(C)(C)=O)ccc1NCC#Cc1sc2c(N[C@H]3CCN(C)C[C@H]3F)cccc2c1CC(F)(F)F [Example 114]: 57
- COc1cc(P(C)(C)=O)ccc1NCC#Cc1sc2c(N[C@@H]3CCN(C4CCOCC4)C[C@@H]3F)cccc2c1CC(F)(F)F [Example 147]: 91
- CNC(=O)c1ccc(NCC#Cc2sc3c(N[C@H]4CCN(C)C[C@H]4F)cccc3c2CC(F)(F)F)c(OC)c1 [Example 112]: 135
- COc1cc([S@@](C)(=N)=O)ccc1NCC#Cc1sc2c(N[C@@H]3CCN(C)C[C@@H]3F)cccc2c1CC(F)(F)F [Example 226]: 39

---

Each record here notes measured IC50.
# Test system: NUGC4 (P53 WT)
# methodSummary: Cell viability assay (CellTiter-Glo, 6 days), NUGC4
# Type: cell-based
# conditionLabel: Homo sapiens, NUGC-4, 144 h; cell viability, 6 days, CellTiter-Glo; read-out: NUGC4 (P53 WT) IC50
endpointName: IC50

• CNC(=O)c1cc(NCC#Cc2sc3c(N[C@@H]4CCN(C5CCOCC5)C[C@@H]4F)cccc3c2CC(F)(F)F)c(OC)cc1P(C)(C)=O [Example 160] = > 50 µM
• CN1CC[C@@H](Nc2cccc3c(CC(F)(F)F)c(C#CCNc4ccc(P(C)(C)=O)cc4C(F)(F)F)sc23)[C@@H](F)C1 [Example 105] = 10 µM
• CN1CC[C@@H](Nc2cccc3c(CC(F)(F)F)c(C#CCNc4ccc(P(C)(C)=O)c5ccoc45)sc23)[C@@H](F)C1 [Example 198] = 5.1 µM
• CN1CC[C@@H](Nc2cccc3c(CC(F)(F)F)c(C#CCNc4ccc(P(C)(C)=O)cc4-c4cc[nH]n4)sc23)[C@@H](F)C1 [Example 200] = 13.1 µM
• COc1cc(P(C)(C)=O)ccc1NCC#Cc1sc2c(NC3C(C)CN(C)CC3C)cccc2c1CC(F)(F)F (stereo not drawn) [Example 131] = 2.54 µM
• COc1cc(P(C)(C)=O)ccc1NCC#Cc1sc2c(N[C@@H]3CCN(C4CCOCC4)C[C@@H]3F)cccc2c1CC(F)(F)F [Example 147] = 6.83 µM
• COc1cc(P2(=O)CCN(C(=O)C3CC3)CC2)ccc1NCC#Cc1sc2c(N[C@@H]3CCN(C)C[C@@H]3F)cccc2c1CC(F)(F)F [Example 149] = 3.7 µM
• COc1cc(P(C)(C)=O)ccc1NCC#Cc1sc2c(N[C@@H]3CCN(C4CCC4)C[C@@H]3F)cccc2c1CC(F)(F)F (racemic) [Example 103] = 2.65 µM
• COc1cc(P(C)(C)=O)ccc1NCC#Cc1sc2c(N[C@@H]3CCN(C4CCN(C)CC4)C[C@@H]3F)cccc2c1CC(F)(F)F (racemic) [Example 72] = 4.43 µM
